# measured-on: integrins on WM-115 cells (mainly integrin α5β1, αVβ3, and αVβ5)
# protocol-text: competitive cell adhesion assay
readout-name: IC50

- binder: "ANFEANELFFISEDV [linear peptide 6 (…)]"
  readout-name: "IC50"
  readout-value: "> 1 mM"
- binder: "FEANE (HELM PEPTIDE1{F.[dE].A.N.E}$PEPTIDE1,PEPTIDE1,1:R1-5:R2$$$V2.0; SMILES C[C@@H]1NC(=O)[C@@H](CCC(=O)O)NC(=O)[C@H](Cc2ccccc2)NC(=O)[C@H](CCC(=O)O)NC(=O)[C@H](CC(N)=O)NC1=O) [cyclopeptide-2 c-(-FeANE-)]"
  readout-name: "IC50"
  readout-value: "> 1 mM"
- binder: "RGDLA (HELM PEPTIDE1{R.G.D.[dL].A}$PEPTIDE1,PEPTIDE1,1:R1-5:R2$$$V2.0; SMILES CC(C)C[C@H]1NC(=O)[C@H](CC(=O)O)NC(=O)CNC(=O)[C@H](CCCNC(=N)N)NC(=O)[C@H](C)NC1=O) [cyclopeptide-7 c-(-RGDlA-)]"
  readout-name: "IC50"
  readout-value: "0.00239 mM"

# input for lookup
[in] Entry FEANE (HELM PEPTIDE1{F.E.A.N.[dE]}$PEPTIDE1,PEPTIDE1,1:R1-5:R2$$$V2.0; SMILES C[C@@H]1NC(=O)[C@H](CCC(=O)O)NC(=O)[C@H](Cc2ccccc2)NC(=O)[C@@H](CCC(=O)O)NC(=O)[C@H](CC(N)=O)NC1=O) [cyclopeptide-5 c-(-FEANe-)] has what IC50?
[out] > 1 mM

Reference source: paper PMC3417467
